# measured_on: Bcl-2-like protein 10 (Homo sapiens) (UniProt Q9HD36)
# Sequence (Q9HD36 whole entry, looked up): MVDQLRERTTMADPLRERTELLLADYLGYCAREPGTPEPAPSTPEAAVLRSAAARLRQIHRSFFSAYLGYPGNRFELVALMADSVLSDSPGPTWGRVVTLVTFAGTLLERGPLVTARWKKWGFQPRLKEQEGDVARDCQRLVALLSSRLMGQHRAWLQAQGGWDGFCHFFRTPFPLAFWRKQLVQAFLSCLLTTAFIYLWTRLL
# assay_text: TR3 peptide-Bcl-B binding displacers, biochemical primary FP assay, phenotype converters (AID 1240);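 note: 0% = Bcl-B with tracer peptide and DMSO and 100% = tracer peptide lacking Bcl-B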
# condition_info: GST-Bcl-B / FITC-TR3 peptide fluorescence polarization; stronger effect = higher value; compound at 3.75 mg/L
In all, about 50,000 compounds went through this assay and about 800 (1.6%) showed an effect of 50% or more. The list comes from a sample in which strong results are over-represented; it also holds close analogues and randomly drawn compounds.
endpoint: displacement (%)
Please reply with the bare figure in % and do not write the unit itself.

Query: Retrieve displacement measured for C=CCN1C(=O)/C(=C\c2ccc(-c3ccc([N+](=O)[O-])cc3Cl)o2)C(=O)NC1=S and print it.
Response: 21

Query: Provide only the value of recorded displacement for O=C(CSc1nc2ccccc2[nH]1)N/N=C/c1cccc(Cl)c1Cl
Response: -5.4

Query: State, in one line, measured displacement of COc1cc(/C=C2/SC(=S)N(CCC(=O)O)C2=O)cc(Br)c1O
Response: -13.7

Query: Output measured displacement for this item: O=C1NC(=O)N(c2ccccc2)C(=O)/C1=C\c1cccn1-c1cccc([N+](=O)[O-])c1
Response: -2.6

Query: Read the entry CCCCOc1ccc(/C=C2\SC(=S)N(CCC(=O)OC)C2=O)cc1OC and write its reported displacement.
Response: 54.1

Query: Specify measured displacement for CN1C(=O)NC(=O)/C(=C/c2ccc(-c3ccc(Cl)cc3Cl)o2)C1=O .
Response: 72.6

Query: Give a short answer stating reported displacement for CC1(C)Cc2ccccc2C(/C(=N\O)C(=O)c2ccccc2)=N1 .
Response: 13.1

Query: Give the reported displacement for this compound. CN1C(=O)NC(=O)/C(=C/c2ccc(-c3ccc([N+](=O)[O-])cc3Cl)o2)C1=O
Response: 93.6

Query: Using known records, supply displacement for COc1cc(/C=C2\SC(N)=NC2=O)cc(Br)c1OC
Response: -25.9

Query: Identify measured displacement corresponding to CN1C(=O)NC(=O)/C(=C/c2ccc(-c3cccc(Cl)c3)o2)C1=O
Response: 81.5

* * *

# measured_on: Bcl-2-like protein 10 (Homo sapiens)
# assay_text: TR3 peptide-Bcl-B binding displacers, biochemical primary FP assay, phenotype converters (AID 1240);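 note: 0% = Bcl-B with tracer peptide and DMSO and 100% = tracer peptide lacking Bcl-B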
# condition_info: GST-Bcl-B / FITC-TR3 peptide fluorescence polarization; stronger effect = higher value; compound at 3.75 mg/L
Among all 50,000 compounds or so, about 800 (1.6%) showed an effect of 50% or more. What follows is part of a selection rich in strong results, with near analogues and random picks from the rest.
endpoint: displacement (%)
Output spec: scalar in %, unitless text.

Query: Tell us which displacement value is on record for CCOC(=O)C1=C(O)/C(=C/c2ccc([N+](=O)[O-])cc2)SC1=Nc1ccc(C)cc1
Response: -3.1

Query: Determine from records and report displacement for CCC1=NN2C(=N)/C(=C/c3ccc(-c4ccc(F)c(Cl)c4)o3)C(=O)N=C2S1
Response: -0.2

Query: Return displacement (reported value) for this molecule: CCOC(=O)C1=C(O)/C(=C/c2ccc(Cl)cc2)SC1=Nc1ccc([N+](=O)[O-])cc1
Response: -7.6

Query: Return value of displacement for input CCCC1=NN2C(=N)/C(=C/c3ccc(-c4ccc(F)cc4)o3)C(=O)N=C2S1 , no commentary.
Response: 135

Query: Indicate the recorded displacement value for this molecule: CCC1=NN2C(=N)/C(=C/c3ccc(-c4ccc(Cl)cc4)o3)C(=O)N=C2S1
Response: 66.7

Query: Given CCOc1ccccc1NC(=S)NCc1ccccc1 , respond with its displacement.
Response: 3.9

Query: Identify measured displacement associated with O=C(c1ccccc1Cl)N1CCN(c2c(Cl)cccc2[N+](=O)[O-])CC1
Response: 8.5

Query: Please give measured displacement of the following entry: CCC1=NN2C(=N)/C(=C/c3ccc(F)cc3)C(=O)N=C2S1
Response: 7.5

Query: Indicate its recorded displacement; the molecule in question is CCCC1=NN2C(=N)/C(=C/c3ccc(OCc4ccc(F)cc4)c(OCC)c3)C(=O)N=C2S1
Response: -6.7

Query: Check the records and state displacement for COc1cc(/C=C2\C(=O)NN(c3ccccc3)C2=O)cc(OC)c1OC
Response: -6.6

Query: Provide measured displacement value, entry: O=[N+]([O-])c1cccc(Cl)c1N1CCN(CCO)CC1
Response: 89.3

Query: Complete the entry with displacement for CCC1=NN2C(=N)/C(=C/c3ccc(-c4ccc(F)cc4)o3)C(=O)N=C2S1
Response: 69.2

Query: Given the molecule CC(=O)OC1CC(C)(C)N([O])C(C)(C)C1 , write its reported displacement.
Response: 5.8

Query: Please give measured displacement of the following entry: COc1ccc(N(CC(=O)NC(C)c2ccccc2)S(=O)(=O)c2ccc(C)cc2)c(OC)c1 (stereo unspecified)
Response: 2.3

Query: Using the record for CCC1=NN2C(=N)/C(=C/c3ccc(-c4ccc(C(=O)O)cc4)o3)C(=O)N=C2S1 , state its measured displacement.
Response: 44.1

Query: Kindly indicate its recorded displacement. Item: CCOc1ccc(C2C(C(=O)/C=C/c3ccccc3)=C(O)C(=O)N2CCCCCC(=O)O)cc1 (stereo unspecified)
Response: -1

Query: Fill in displacement for record COc1ccc(-c2ccc(-c3nnc(-c4cccc(C)c4)o3)cc2)cc1
Response: -5.4

Query: Hello, please tell me recorded displacement for this one: CCOc1ccc(/C=C2/NC(=S)NC2=O)cc1
Response: 10.8

Query: Determine its reported displacement: CCCC1=NN2C(=N)/C(=C/c3ccc(-c4ccccc4C(=O)OC)o3)C(=O)N=C2S1
Response: -37

Query: Tell us which displacement value is on record for CCOC(=O)C1=C(O)CSC1=Nc1ccc(Cl)cc1
Response: -6.7

Query: For the molecule CCCCCC(=O)N1c2ccccc2NC2=C(C(=O)CC(c3ccc(OC)cc3)C2)C1c1ccco1 (stereo unspecified) , give its reported displacement.
Response: -3.9

* * *

# measured_on: Bcl-2-like protein 10 (Homo sapiens) (UniProt Q9HD36)
# assay_text: TR3 peptide-Bcl-B binding displacers, biochemical primary FP assay, phenotype converters (AID 1240);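 note: 0% = Bcl-B with tracer peptide and DMSO and 100% = tracer peptide lacking Bcl-B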
# condition_info: GST-Bcl-B / FITC-TR3 peptide fluorescence polarization; stronger effect = higher value; compound at 3.75 mg/L
The campaign covered roughly 50,000 compounds. About 800 (1.6%) showed an effect of 50% or more. The sample as a whole holds a higher share of strong results than the screen did.
endpoint: displacement (%)
Lab book: enter the figure in %, no units written.

Query: Given C=CCN1C(=O)/C(=C\c2ccccc2)C(C(=O)OC)=C1C , respond with its displacement.
Response: -2.2

Query: For the compound COc1cc(NC(=O)c2ccc(-c3ccc(Br)cc3)o2)ccc1NC(=O)c1ccco1 , report displacement.
Response: 158

Query: Provide one value: measured displacement of O=C(NN1C(=O)/C(=C\c2ccccn2)SC1=S)c1ccccc1
Response: -15.1

Query: Specify displacement for COC(=O)C1=C(C)N(c2ccccc2F)C(=O)/C1=C\c1ccc(F)cc1 and stop.
Response: 2.3

Query: Identify measured displacement corresponding to Cc1c(Cl)cccc1N1C(=O)c2ccccc2C1=O
Response: 7.1

Query: Identify measured displacement corresponding to CN1CCO/C1=C(C#N)\C=C1\Nc2ccccc2C1=O
Response: -77.4

Query: Fill in reported displacement for this entry: COc1cc(C(=O)N2CCN(C)CC2)c([N+](=O)[O-])cc1OC
Response: -0.1

Query: Report displacement for COC(=O)C1=C(C)N(c2cc(C)cc(C)c2)/C(=C/c2ccco2)C1=O
Response: 99.6

Query: Tell me measured displacement for Cc1ccccc1NC(=O)CN(c1ccc(Oc2ccccc2)cc1)S(C)(=O)=O please.
Response: 1.7

Query: Supply displacement value. Item: C=CCN1C(=O)/C(=C\c2ccco2)C(C(=O)OC)=C1C
Response: 65.4

Query: Please give the documented displacement of O=C(Nc1cccnc1)c1ccc(-c2ccc(Br)cc2)o1
Response: -5.1

Query: Dear colleague, please send me the reported displacement for COC(=O)C1=C(C)N(c2cc(C)cc(C)c2)/C(=C\c2sccc2C)C1=O when you can.
Response: 27

Query: Determine its reported displacement: N#Cc1c(-c2ccccc2)cc(-c2ccc(Br)cc2)nc1N
Response: 8.8

Query: Retrieve displacement measured for COc1ccc(-c2cc(-c3ccc(Cl)cc3)c(C#N)c(N)n2)cc1 and print it.
Response: 6.4

Query: Provide one value: measured displacement of O=C(NC(=S)Nc1ccc(-c2nc3ncccc3o2)cc1)c1ccco1
Response: 112

Query: // fetch displacement given entry O=C(Nc1ccc(-c2nc3ncccc3o2)cc1)c1ccc(Br)o1
Response: -1.9

Query: Identify measured displacement associated with O=c1/c(=C/c2cccs2)sc2nc3ccccc3n12
Response: 7.2

Query: Could you please provide reported displacement for COC(=O)C1=C(C)N(c2ccccc2F)C(=O)/C1=C\c1ccccc1F ? Thanks!
Response: 112

Query: Recall and state the measured displacement for Cc1ccsc1/C=c1\sc2nc3ccccc3n2c1=O .
Response: -8.5

Query: Quick one: give measured displacement for O=C(Nc1ccc(Cc2ccncc2)cc1)c1ccc(-c2ccc(Br)cc2)o1
Response: 109

Query: Retrieve displacement measured for COC(=O)C1=C(C)N(c2ccc(C)c(C)c2)/C(=C/c2ccco2)C1=O and print it.
Response: 8.8

Query: Please look at this compound and report its displacement: CN1CCO/C1=C(C#N)\C=C1/C(=O)N(c2c(Cl)cccc2Cl)c2ccccc21
Response: 67.6

Query: For the compound O=C(NC(=S)Nc1ccc(-c2nc3ccccc3o2)cc1)c1ccco1 , give its reported displacement.
Response: 11.6
